Origin of the recorded values: patent US20120220567A1

# key: entry, value: pIC50
assayed system: SCD-1 (Homo sapiens)
Construct: 50 μg of protein from a HepG2 cell P2 pellet; endogenous in cells; host or cells: HepG2 cells (P2 pellet)
Sequence (O00767 whole entry): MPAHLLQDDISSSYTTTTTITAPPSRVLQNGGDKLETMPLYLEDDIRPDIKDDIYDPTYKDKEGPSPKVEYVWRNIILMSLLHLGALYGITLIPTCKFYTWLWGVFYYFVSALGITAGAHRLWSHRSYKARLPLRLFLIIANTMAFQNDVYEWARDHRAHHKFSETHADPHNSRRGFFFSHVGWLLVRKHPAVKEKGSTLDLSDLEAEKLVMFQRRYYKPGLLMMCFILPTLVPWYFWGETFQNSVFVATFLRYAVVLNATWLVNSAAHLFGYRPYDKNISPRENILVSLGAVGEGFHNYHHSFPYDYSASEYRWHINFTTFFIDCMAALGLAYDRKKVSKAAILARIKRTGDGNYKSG
test description: Stearoyl-CoA desaturase assay (HepG2 cell P2 pellet)
Format: biochemical
recorded conditions: Table 1, compounds of formula (Ia); protein from HepG2 cell P2 pellet, 20 μM stearoyl-CoA, 15 min at 25° C.; read-out: Ave IC50
pIC50: −log10 of the molar value.

compound	assayed system	pIC50
CC(C)(C)c1ccc(CN2CCC3(CCN(C(=O)CNC(=O)c4cccs4)CC3)Oc3ccccc32)cc1	SCD-1 (Homo sapiens)	6.30 to 7.30

Req: Read off the recorded pIC50 for CC(=O)NCC(=O)N1CCC2(CC1)CCN(Cc1cccc(C(F)(F)F)c1)c1cccc(F)c1O2
Resp: 5.00 to 6.30

Req: Read off the recorded pIC50 for CC(=O)NCC(=O)N1CCC2(CC1)CCN(Cc1cccc(Br)c1)c1ccccc1O2
Resp: 5.00 to 6.30

Req: Read off the recorded pIC50 for CCc1ccc(CN2CCC3(CCN(C(=O)CNC(=O)C(C)C)CC3)Oc3ccccc32)cc1
Resp: 5.00 to 6.30

Req: Read off the recorded pIC50 for CC(=O)NCC(=O)N1CCC2(CC1)CCN(Cc1ccc(C#N)cc1)c1ccccc1O2 [Compound 23]
Resp: < 5.00

Req: Read off the recorded pIC50 for CC(=O)NCC(=O)N1CCC2(CC1)CCN(Cc1ccc(C#N)cc1)c1ccccc1O2 [Compound 21]
Resp: 5.00 to 6.30
